- assayed target: Cannabinoid receptor 1 (Homo sapiens, UniProt P21554); also: assay procedure not described here
- Sequence (P21554 whole entry): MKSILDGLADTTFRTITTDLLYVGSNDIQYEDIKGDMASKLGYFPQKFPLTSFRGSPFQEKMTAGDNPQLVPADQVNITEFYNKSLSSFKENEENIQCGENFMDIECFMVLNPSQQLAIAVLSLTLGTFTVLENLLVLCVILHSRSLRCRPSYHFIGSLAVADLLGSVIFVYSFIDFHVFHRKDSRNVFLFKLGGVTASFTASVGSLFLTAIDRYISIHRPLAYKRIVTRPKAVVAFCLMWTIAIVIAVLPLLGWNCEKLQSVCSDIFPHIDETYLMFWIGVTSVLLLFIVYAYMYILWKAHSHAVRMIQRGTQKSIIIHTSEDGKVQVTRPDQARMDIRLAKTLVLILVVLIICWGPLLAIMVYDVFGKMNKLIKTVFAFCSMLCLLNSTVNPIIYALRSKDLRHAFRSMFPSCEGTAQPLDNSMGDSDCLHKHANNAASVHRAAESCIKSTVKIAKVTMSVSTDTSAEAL
- Type: functional, cell-based
metric name: AC50

Any idea what its AC50 is? The compound is CS(=O)(=O)OCCCCOS(C)(=O)=O
> 30 µM

Any idea what its AC50 is? The compound is CCCN(CCc1cccs1)[C@H]1CCc2c(O)cccc2C1
> 30 µM

Any idea what its AC50 is? The compound is CCN(CC)C(=O)C1CN2CCc3cc(OC)c(OC)cc3C2CC1OC(C)=O (stereo not drawn) [BENZQUINAMIDE]
> 30 µM

Any idea what its AC50 is? The compound is O=C(Nc1c(Cl)cncc1Cl)c1ccc(OC(F)F)c(OCC2CC2)c1
> 30 µM

Any idea what its AC50 is? The compound is Cn1c(=O)c2[nH]cnc2n(C)c1=O
> 30 µM

Any idea what its AC50 is? The compound is [H]/N=C(/N)N[C@H]1[C@H](O)[C@@H](O)[C@H](O[C@@H]2O[C@@H](C)[C@](O)(C=O)[C@H]2O[C@@H]2O[C@@H](CO)[C@H](O)[C@@H](O)[C@@H]2NC)[C@@H](N/C(N)=N\[H])[C@@H]1O
> 30 µM

Any idea what its AC50 is? The compound is CC1(C)C(/C=C/C=C/C=C/C=C2\N(CCCCS(=O)(=O)O)c3ccc4ccccc4c3C2(C)C)=[N+](CCCCS(=O)(=O)[O-])c2ccc3ccccc3c21 [INDOCYANINE GREEN ACID FORM]
9.3 µM

Any idea what its AC50 is? The compound is CN(c1nccc(=O)[nH]1)C1CCN(c2nc3ccccc3n2Cc2ccc(F)cc2)CC1
> 30 µM
